- Test system: LOX IMVI melanoma
- procedure-details: NCI-60 one-dose screen, 48 h
- experimental-conditions: 10 µM unless noted
- Method: Growth inhibition of the LOX IMVI human tumor cell line is measured as a screen for anti-cancer activity. Cells are grown in 96 well plates and exposed to the test compound for 48 hours. Compounds are tested at a single concentration, which is 10^-5 M for most compounds. The reported endpoint is percent growth (GI% or GIPRCNT), where numbers from 0 - 100% represent growth inhibition, and numbers from -100% - 0 represent cell death. For example, a value of 40 represents 60% growth inhibition. […]
The panel holds about 83,000 compounds, 20% with a hit somewhere; the sample as a whole holds those more often. Calls of active or inactive are those of the source. How the source made its calls: active means growth percent below 10; inactive means the rest.
Possible outcomes: active, inactive

# compound, assigned-class
rows = [
    ("CSCc1ncc(-c2ccc(C(F)(F)F)cc2)c(NC2CCCCCC2)n1", "inactive"),
    ("C=CC1CN2CCC1CC2C(O)c1ccnc2ccc(OC)cc12 (stereo unspecified)", "inactive"),
    ("Cc1nc2c(nnn2-c2ccccc2)c2nc(-c3ccc(Cl)cc3)oc(=O)c12", "inactive"),
    ("CC[C@H](Nc1ncnc2nc[nH]c12)c1nc2cccc(NCc3ccc(C(=O)NO)o3)c2c(=O)n1-c1ccccc1", "inactive"),
    ("CCOC(=O)CNS(=O)(=O)CC(=O)c1ccccc1", "inactive"),
    ("Brc1ccc(-c2nc3ccccc3s2)cc1", "inactive"),
    ("Cc1ncc(C(=O)Nc2ccc(CN3CCN(C)CC3)c(C(F)(F)F)c2)cc1C#Cc1c(N)ncc2ccccc12", "active"),
    ("C=C(NC(=O)[C@H](C(C)C)N(C)c1cccc2[nH]ccc12)C(=O)OC", "inactive"),
    ("COC(=O)/C=C/c1cc(O)c2oc(-c3ccc(O)c(O)c3)c(C(=O)OC)c2c1", "inactive"),
    ("O=C1c2ccccc2CCc2ccccc21", "inactive"),
    ("NC(=O)CC(NC(=O)COc1ccc(Cl)cc1Cl)C(=O)O (stereo unspecified)", "inactive"),
    ("CCOC(=O)NC1=NCC(C)(C)S1", "inactive"),
    ("[2H]c1nc(=Nc2cc(NC(=O)C=C)c(N(C)CCN(C)C)cc2OC)[nH]c(-c2cn(C([2H])([2H])[2H])c3ccccc23)c1[2H]", "inactive"),
    ("CC(=O)Nc1ccc(CC#N)cc1Br", "inactive"),
    ("COC(=O)c1ccc2[nH]c(O)c(C(=Nc3ccc(N(C)C(=O)CN4CCN(C)CC4)cc3)c3ccc4c(c3)OCO4)c2c1", "active"),
    ("CNc1nc2ncn(C)c2c(=O)[nH]1", "inactive"),
    ("CCN(CC)CCCC(C)Nc1c(C)cnc2cc(Cl)c(C)cc12 (stereo unspecified)", "inactive"),
    ("COc1cc(/C=C/C(=O)/C=C(/C=C/c2ccc(OC(C)=O)c(OC)c2)OB(F)F)ccc1OC(C)=O", "inactive"),
    ("CCCCCCCCc1ccc(OCCOCC[N+](C)(C)CC)cc1 (tested in a mixture with another compound)", "inactive"),
    ("COc1cc2ncnc(-n3ncc4cc(NC(=O)Nc5ccc(Cl)c(C)c5)ccc43)c2cc1OC", "inactive"),
    ("CC(=O)Nc1nc(C)c(C(=O)N/N=C/N2CCOCC2)s1", "inactive"),
]

Where do these numbers come from? They come from PubChem BioAssay (NCI).
